Listing of entries alongside the reported M07e-hPD-1 cell proliferation ratio (%) at 1 nM.
target: human PD-1 (human, UniProt Q15116 25-288); assay: cell-based or functional assay
Sequence (Q15116 25-288 limits assumed): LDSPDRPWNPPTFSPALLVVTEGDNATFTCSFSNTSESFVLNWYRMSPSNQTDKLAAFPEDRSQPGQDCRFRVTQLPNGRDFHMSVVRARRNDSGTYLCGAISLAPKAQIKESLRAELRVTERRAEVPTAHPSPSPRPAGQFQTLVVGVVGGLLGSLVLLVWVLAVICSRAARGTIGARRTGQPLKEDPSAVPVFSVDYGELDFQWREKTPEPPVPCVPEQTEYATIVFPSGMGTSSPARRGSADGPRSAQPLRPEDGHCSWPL
Report the value in % with no unit label.

binder	measurement_units	obs_value
A-N88D-M08 (Fc fusion, also called A-N88D-M8; not shown: IgG1 hinge (C220S) + Fc Knob chain as in A-N88D; IgG1 hinge (C220S) + Fc Hole chain as in A-N88D) chain (part 1 of 2): EVQLVESGGGLVQPGGSLRLSCAASGLTFSDYSMSWYRQAPGKGRELVAIISGSGVITHYVDSVKGRFTISRDNAKNTLYLQMRSLRAEDTAVYYCRAVSDWQDYWGQGTQVTVSS chain (part 2 of 2): GGGGSGGGGSGGGGSAPASSSTKKTQLQLEHLLLDLQMILQGISNYKNPKLTRMLTAKFYMPKKATELKHLQCLEEELKPLEEVLQGAQSKNFHLRPRDLISDINVIVLELKGSETTFMCEYADETATIVEFLNRWITFAQSIISTLT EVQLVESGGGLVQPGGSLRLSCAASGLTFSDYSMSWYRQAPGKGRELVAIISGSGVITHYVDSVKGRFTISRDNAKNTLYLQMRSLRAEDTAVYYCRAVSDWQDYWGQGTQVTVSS	%	36
A-N88D-M15 (Fc fusion, not shown: IgG1 hinge (C220S) + Fc Knob chain as in A-N88D; IgG1 hinge (C220S) + Fc Hole chain as in A-N88D) chain (part 1 of 2): EVQLVESGGGLVQPGGSLRLSCAASGLTFSDYSMSWYRQAPGKGRELVAIISGSGGITHYVDSVKGRFTISRDNAKNTLYLQMRSLRAEDTAVYYCRAVSDWEDYWGQGTQVTVSS chain (part 2 of 2): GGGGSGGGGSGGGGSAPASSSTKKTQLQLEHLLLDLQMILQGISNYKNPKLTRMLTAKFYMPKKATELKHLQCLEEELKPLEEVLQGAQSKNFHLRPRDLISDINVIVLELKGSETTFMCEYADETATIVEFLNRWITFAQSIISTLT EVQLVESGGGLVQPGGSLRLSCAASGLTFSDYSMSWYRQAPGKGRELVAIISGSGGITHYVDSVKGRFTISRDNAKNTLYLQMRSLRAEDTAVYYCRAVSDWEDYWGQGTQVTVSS	%	32.9
A-N88D (Fc fusion, also called PD-1-IL-2v (N88D); not shown: IgG1 hinge (C220S) + Fc Knob chain (L234A, L235A, S354C, T366W, EU); D356/L358 or E356/M358 ver; IgG1 hinge (C220S) + Fc Hole chain (L234A, L235A, Y349C, T366S, L368A, Y407V; may have H435R, Y436F; EU)) chain (part 1 of 2): EVQLVESGGGLVQPGGSLRLSCAASGLTFSDYSMSWYRQAPGKGRELVAIISGSGVITHYVDSVKGRFTISRDNAKNTLYLQMRSLRAEDTAVYYCRAVSDWEDYWGQGTQVTVSS chain (part 2 of 2): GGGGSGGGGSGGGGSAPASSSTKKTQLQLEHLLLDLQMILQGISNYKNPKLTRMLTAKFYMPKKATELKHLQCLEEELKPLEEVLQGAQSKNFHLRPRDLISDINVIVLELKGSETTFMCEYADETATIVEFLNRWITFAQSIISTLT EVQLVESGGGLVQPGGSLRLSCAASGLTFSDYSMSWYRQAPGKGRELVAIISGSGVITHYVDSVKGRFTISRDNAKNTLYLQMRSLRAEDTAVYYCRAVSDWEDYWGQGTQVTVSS	%	36

Exercise: Specify measured M07e-hPD-1 cell proliferation ratio (%) at 1 nM for A-N88D-M27 (Fc fusion, not shown: IgG1 hinge (C220S) + Fc Knob chain as in A-N88D; IgG1 hinge (C220S) + Fc Hole chain as in A-N88D) chain (part 1 of 2): EVQLVESGGGLVQPGGSLRLSCAASGLTFSSYSMSWYRQAPGKGRELVAIISGSGGITHYVDSVKGRFTISRDNAKNTLYLQMRSLRAEDTAVYYCRAVSDWQDYWGQGTQVTVSS chain (part 2 of 2): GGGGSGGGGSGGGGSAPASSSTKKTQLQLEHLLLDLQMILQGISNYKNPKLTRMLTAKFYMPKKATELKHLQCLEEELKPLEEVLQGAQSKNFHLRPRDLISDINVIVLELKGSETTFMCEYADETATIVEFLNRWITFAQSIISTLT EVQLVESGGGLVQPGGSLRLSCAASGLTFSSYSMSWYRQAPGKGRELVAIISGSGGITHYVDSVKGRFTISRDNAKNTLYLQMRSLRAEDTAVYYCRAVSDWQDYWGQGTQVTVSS .
Key: 21.1
